Below, each entry is listed with its recorded SPOT signal as a fraction of Bim BH3's signal on the same receptor and array.
target-entity: T1, Bfl-1, Q16548
T1 chain: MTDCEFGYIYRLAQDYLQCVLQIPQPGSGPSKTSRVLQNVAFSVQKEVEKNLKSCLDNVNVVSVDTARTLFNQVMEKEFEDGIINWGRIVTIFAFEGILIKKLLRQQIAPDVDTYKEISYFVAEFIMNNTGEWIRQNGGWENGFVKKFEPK
measurement-notes: peptide SPOT array, c-Myc-tagged receptor at 1 uM or 100 nM, anti-c-Myc-Cy3
readout-type: SPOT signal as a fraction of Bim BH3's signal on the same receptor and array

INSERT INTO results (binder, value_observed) VALUES
  ('RKDAELLCWDLRQSGYPLWSLGREVT [WRAP53]', 0.05),
  ('WLKGDILGEKDVNLADCLCNEDLESR [RNF160]', 0.05),
  ('LMARPAVALHDQSIADGFKEAVRYVL [SOS2]', 0.22),
  ('PYLSKHRADRMRRLGDFLNQESFDLA [SMPD2]', 0.69),
  ('GSPDSMFGISLAVLGDLNQDGFPDIA [ITGA7]', 0.08),
  ('DSLLWKLAGLDRESGDVVLSGCSTLS [STK11IP]', 0.04),
  ('GMTSEQVAQVLRNCGNSVRMLVARDP [INADL]', 0.15),
  ('MVLDPSLAEHLSHFGIDMLKMQKTDK [USP5]', 0.07),
  ('VTLLSEVEKMLSNFLDCVQYKEIVKN [SYNE1]', 0.06),
  ('FSVDLNASRSLSQVAMDLHEAVSMKL [DCST2]', 0.08),
  ('VLELHPGAQRLHIGLDEVYYLGEGEA [HEXDC]', 0.04),
  ('IKEAADIIQKLHLIAQELPFDRFSEV [EXOC5]', 0.03),
  ('ASEANLFEEALEKYGKDFTDIQQDFL [MTA1]', 0.01),
  ('TRRSMVFARHLREVLDEFRSRHLNST [POFUT2]', 0.61);
